system.under.test: OsSMF1 (Oryza sativa, UniProt Q6ZLB0 1-436)
Sequence: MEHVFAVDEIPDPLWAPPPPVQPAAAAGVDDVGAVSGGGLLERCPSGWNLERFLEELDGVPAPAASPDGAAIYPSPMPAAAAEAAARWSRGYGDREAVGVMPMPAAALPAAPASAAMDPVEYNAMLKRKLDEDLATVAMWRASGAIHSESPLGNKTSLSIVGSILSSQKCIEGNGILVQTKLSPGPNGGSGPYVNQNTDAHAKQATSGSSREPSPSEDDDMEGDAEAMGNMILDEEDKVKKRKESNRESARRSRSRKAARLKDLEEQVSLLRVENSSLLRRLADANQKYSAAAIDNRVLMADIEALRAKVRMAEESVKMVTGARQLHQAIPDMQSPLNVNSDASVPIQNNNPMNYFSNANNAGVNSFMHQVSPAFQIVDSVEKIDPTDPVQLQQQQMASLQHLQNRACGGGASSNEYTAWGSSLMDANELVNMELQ
procedure.summary: protein-binding microarray (RPBM); PBS, 2% BSA, 51.3 ng/ul salmon testes DNA, 50 uM zinc acetate, 200 nM TF, 25 C, 1 h; high values mean tight binding
measurement.context: protein: recombinant; tags: N-terminal polyhistidine and DsRed monomer fusion (pET32a); chain copies: 2; label: CyDye5-dUTP incorporated in the synthesized complementary strand; 3' TTTTT single-stranded linker to array surface; dsDNA, one strand shown
The full ranking holds about 39,000 sequences; the median of “fluorescence intensity (a.u.)” is about 4,300, and the highest 2% start at about 39,000. The list comes from a sample in which the highest values are over-represented; it also holds close analogues and randomly drawn sequences.
metric.name: binding signal

Here is how some sequences turned out for binding signal.
| sequence.chain | recorded.value |
| --- | --- |
| GATGACGACGGCGATGACGGCGGGGCGGTTTGGAGCGGGGCGGAGTCACCTAGTGCAG | 4720 fluorescence intensity (a.u.) |
| GTTGGGGCGCCTCTGGGGCTGTCCACGTCGGATAGCTACACGGAGTCACCTAGTGCAG | 20700 fluorescence intensity (a.u.) |
| AAGAGACCTGTTTATTAGCGTCACTGACAGTCGTTGTCACCGGAGTCACCTAGTGCAG | 3660 fluorescence intensity (a.u.) |
| CACCACACGAAGCAGCCACGAACGCAACGCGGGTGCGTCGCGGAGTCACCTAGTGCAG | 3140 fluorescence intensity (a.u.) |
| ACTCCCTCGACGGTTTTGGAGGGCGATTTTGCTGACGTGGCGGAGTCACCTAGTGCAG | 47600 fluorescence intensity (a.u.) |
| AACTGGAACCCTTAGCCACTGTGAGGTGTACATCTGACAACGGAGTCACCTAGTGCAG | 4990 fluorescence intensity (a.u.) |
| TGGTTCAAAATGTAAACATTAGTTAAATGGTGATCCAAAGCGGAGTCACCTAGTGCAG | 49900 fluorescence intensity (a.u.) |
| TAAAAGCCAAGCACCATCTCGAAGTCTTCTTCCTCCTCCACGGAGTCACCTAGTGCAG | 12500 fluorescence intensity (a.u.) |

Measured binding signal, ACCACTCTACCACAACCATTACGCTATCCGCCACGAGCAACGGAGTCACCTAGTGCAG : 3270 fluorescence intensity (a.u.)

Measured binding signal, GGAGAAACAATATTCGTCATACATTTTGAACCAGATCAAGCGGAGTCACCTAGTGCAG : 31700 fluorescence intensity (a.u.)

Measured binding signal, TAGAGAGCGGTTTTGCTGACGTGGCGTATACGTGACGGTACGGAGTCACCTAGTGCAG : 33100 fluorescence intensity (a.u.)
